# pIC50 per entry
- System: NCI-H460
- method-summary: Inhibitory activity against H460pv8 cell line using MTT assay
- Type: functional, cell-based
- experimental-context: Homo sapiens
pIC50: −log10 of the molar value.
property-measured: pIC50

>>> result_number("COc1cc([C@@H]2c3cc4c(cc3[C@@H](O[C@@H]3O[C@@H]5CO[C@@H](C)O[C@H]5[C@H](O)[C@H]3O)[C@H]3COC(=O)[C@H]23)OCO4)cc(OC)c1O [ETOPOSIDE]")
6.41
>>> result_number("COc1cccc2c1C(=O)c1c(O)c3c(c(O)c1C2=O)C[C@@](O)(C(=O)CO)C[C@@H]3O[C@H]1C[C@H](N)[C@H](O)[C@H](C)O1")
8.40
>>> result_number("N#CCCCc1cnc2c3c(cccc13)Nc1ccccc1-2")
5.69
>>> result_number("Cc1ccc2c(c1)-c1cccc3nc4ccccc4c(c13)N2")
6.31
>>> result_number("c1ccc2c(c1)Nc1c3ccccc3nc3cccc-2c13")
6.49

The measured values listed here are drawn from ChEMBL document CHEMBL1133721.
